# tgt: TcpK (Clostridium perfringens (plasmid pCW3), UniProt Q1PLI2 1-102)
# method-notes: fluorescence polarization; SPR: 10 mM HEPES pH 7.4, 200 mM NaCl, 3 mM EDTA, 0.05% Tween 20, 20 C; […]
# study-conditions: protein: recombinant; tags: N-terminal His6-TEV, cleaved; chain copies: 2; label: 5' Alexa488; blunt

[
  {
    "binder": "oriTmin23 Alexa488 (dsDNA) DNA 1: AAGGAACTTTACAGGGAACTTTA DNA 2: TAAAGTTCCCTGTAAAGTTCCTT",
    "Kd": "590 nM"
  }
]

Reference for the values: paper PMC6137059
